All values here come from ChEMBL document CHEMBL3600374.

- measurement-target: Prothrombin (Homo sapiens) (UniProt P00734)
- test-summary: Inhibition of thrombin (unknown origin) using Boc-Val-Pro-Arg-AMC as substrate at 25 uM preincubated for 15 mins followed by substrate addition measured for 10 mins by FRET assay relative to control
For each record, write down the corresponding inhibition.
One number for each entry, in %.

For orientation, consider the following solved cases.
| smiles-code | measurement-target | readout-unit | inhibition |
| --- | --- | --- | --- |
| N=C(N)NCCC[C@H](NC(=O)c1ccc(/C=C2\SC(=O)N(C3CCCCCC3)C2=O)cc1)C(=O)N[C@@H](CCCCN)C(=O)N[C@H](C(N)=O)c1ccccc1 | Prothrombin (Homo sapiens) (UniProt P00734) | % | 11.5 |
| N=C(N)NCCC[C@H](NC(=O)c1ccc(/C=C2\SC(=O)N(CC3CCC3)C2=O)cc1)C(=O)N[C@@H](CCCCN)C(=O)N[C@H](C(N)=O)c1ccccc1 | Prothrombin (Homo sapiens) (UniProt P00734) | % | 8 |
| CC(C)N1C(=O)S/C(=C\c2ccc(C(=O)N[C@@H](CCCNC(=N)N)C(=O)N[C@@H](CCCCN)C(=O)N[C@H](C(N)=O)c3ccccc3)cc2)C1=O | Prothrombin (Homo sapiens) (UniProt P00734) | % | 8.5 |
| N=C(N)NCCC[C@H](NC(=O)c1ccc(/C=C2\SC(=O)N(C3CCCCC3)C2=O)cc1)C(=O)N[C@@H](CCCCN)C(=O)N[C@H](C(N)=O)c1ccccc1 | Prothrombin (Homo sapiens) (UniProt P00734) | % | 9.5 |
| C#CCN1C(=O)S/C(=C\c2ccc(C(=O)N[C@@H](CCCNC(=N)N)C(=O)N[C@@H](CCCCN)C(=O)N[C@H](C(N)=O)c3ccccc3)cc2)C1=O | Prothrombin (Homo sapiens) (UniProt P00734) | % | 10.9 |

Give inhibition for all compounds that follow.
1. N=C(N)NCCC[C@H](NC(=O)c1ccc(/C=C2\SC(=O)N(C3CCC3)C2=O)cc1)C(=O)N[C@@H](CCCCN)C(=O)N[C@H](C(N)=O)c1ccccc1
2. N=C(N)NCCC[C@H](NC(=O)c1ccc(/C=C2\SC(=O)N(CC3CCCC3)C2=O)cc1)C(=O)N[C@@H](CCCCN)C(=O)N[C@H](C(N)=O)c1ccccc1

Response:
1: 4.7; 2: 10.1

###

- measurement-target: Prothrombin (Homo sapiens)
- test-summary: Inhibition of thrombin (unknown origin) using Boc-Val-Pro-Arg-AMC as substrate at 25 uM preincubated for 15 mins followed by substrate addition measured for 10 mins by FRET assay relative to control
reported-endpoint: inhibition

For orientation, consider the following solved cases.
| smiles-code | inhibition |
| --- | --- |
| N=C(N)NCCC[C@H](NC(=O)c1ccc(/C=C2\SC(=O)N(CC3CCCCC3)C2=O)cc1)C(=O)N[C@@H](CCCCN)C(=O)N[C@H](C(N)=O)c1ccccc1 | 6.9% |
| N=C(N)NCCC[C@H](NC(=O)c1ccc(/C=C2\SC(=O)N(CCC3CCCCC3)C2=O)cc1)C(=O)N[C@@H](CCCCN)C(=O)N[C@H](C(N)=O)c1ccccc1 | 7.3% |
| CC(C)CCN1C(=O)S/C(=C\c2ccc(C(=O)N[C@@H](CCCNC(=N)N)C(=O)N[C@@H](CCCCN)C(=O)N[C@H](C(N)=O)c3ccccc3)cc2)C1=O | 7.3% |

Turning now to a further record.
Prompt: Suppose we examine the molecule C#CCCN1C(=O)S/C(=C\c2ccc(C(=O)N[C@@H](CCCNC(=N)N)C(=O)N[C@@H](CCCCN)C(=O)N[C@H](C(N)=O)c3ccccc3)cc2)C1=O ; what inhibition value has been reported?
Response: 13%

###

- measurement-target: Genome polyprotein (West Nile virus) (UniProt P06935)
- Sequence (P06935 whole entry): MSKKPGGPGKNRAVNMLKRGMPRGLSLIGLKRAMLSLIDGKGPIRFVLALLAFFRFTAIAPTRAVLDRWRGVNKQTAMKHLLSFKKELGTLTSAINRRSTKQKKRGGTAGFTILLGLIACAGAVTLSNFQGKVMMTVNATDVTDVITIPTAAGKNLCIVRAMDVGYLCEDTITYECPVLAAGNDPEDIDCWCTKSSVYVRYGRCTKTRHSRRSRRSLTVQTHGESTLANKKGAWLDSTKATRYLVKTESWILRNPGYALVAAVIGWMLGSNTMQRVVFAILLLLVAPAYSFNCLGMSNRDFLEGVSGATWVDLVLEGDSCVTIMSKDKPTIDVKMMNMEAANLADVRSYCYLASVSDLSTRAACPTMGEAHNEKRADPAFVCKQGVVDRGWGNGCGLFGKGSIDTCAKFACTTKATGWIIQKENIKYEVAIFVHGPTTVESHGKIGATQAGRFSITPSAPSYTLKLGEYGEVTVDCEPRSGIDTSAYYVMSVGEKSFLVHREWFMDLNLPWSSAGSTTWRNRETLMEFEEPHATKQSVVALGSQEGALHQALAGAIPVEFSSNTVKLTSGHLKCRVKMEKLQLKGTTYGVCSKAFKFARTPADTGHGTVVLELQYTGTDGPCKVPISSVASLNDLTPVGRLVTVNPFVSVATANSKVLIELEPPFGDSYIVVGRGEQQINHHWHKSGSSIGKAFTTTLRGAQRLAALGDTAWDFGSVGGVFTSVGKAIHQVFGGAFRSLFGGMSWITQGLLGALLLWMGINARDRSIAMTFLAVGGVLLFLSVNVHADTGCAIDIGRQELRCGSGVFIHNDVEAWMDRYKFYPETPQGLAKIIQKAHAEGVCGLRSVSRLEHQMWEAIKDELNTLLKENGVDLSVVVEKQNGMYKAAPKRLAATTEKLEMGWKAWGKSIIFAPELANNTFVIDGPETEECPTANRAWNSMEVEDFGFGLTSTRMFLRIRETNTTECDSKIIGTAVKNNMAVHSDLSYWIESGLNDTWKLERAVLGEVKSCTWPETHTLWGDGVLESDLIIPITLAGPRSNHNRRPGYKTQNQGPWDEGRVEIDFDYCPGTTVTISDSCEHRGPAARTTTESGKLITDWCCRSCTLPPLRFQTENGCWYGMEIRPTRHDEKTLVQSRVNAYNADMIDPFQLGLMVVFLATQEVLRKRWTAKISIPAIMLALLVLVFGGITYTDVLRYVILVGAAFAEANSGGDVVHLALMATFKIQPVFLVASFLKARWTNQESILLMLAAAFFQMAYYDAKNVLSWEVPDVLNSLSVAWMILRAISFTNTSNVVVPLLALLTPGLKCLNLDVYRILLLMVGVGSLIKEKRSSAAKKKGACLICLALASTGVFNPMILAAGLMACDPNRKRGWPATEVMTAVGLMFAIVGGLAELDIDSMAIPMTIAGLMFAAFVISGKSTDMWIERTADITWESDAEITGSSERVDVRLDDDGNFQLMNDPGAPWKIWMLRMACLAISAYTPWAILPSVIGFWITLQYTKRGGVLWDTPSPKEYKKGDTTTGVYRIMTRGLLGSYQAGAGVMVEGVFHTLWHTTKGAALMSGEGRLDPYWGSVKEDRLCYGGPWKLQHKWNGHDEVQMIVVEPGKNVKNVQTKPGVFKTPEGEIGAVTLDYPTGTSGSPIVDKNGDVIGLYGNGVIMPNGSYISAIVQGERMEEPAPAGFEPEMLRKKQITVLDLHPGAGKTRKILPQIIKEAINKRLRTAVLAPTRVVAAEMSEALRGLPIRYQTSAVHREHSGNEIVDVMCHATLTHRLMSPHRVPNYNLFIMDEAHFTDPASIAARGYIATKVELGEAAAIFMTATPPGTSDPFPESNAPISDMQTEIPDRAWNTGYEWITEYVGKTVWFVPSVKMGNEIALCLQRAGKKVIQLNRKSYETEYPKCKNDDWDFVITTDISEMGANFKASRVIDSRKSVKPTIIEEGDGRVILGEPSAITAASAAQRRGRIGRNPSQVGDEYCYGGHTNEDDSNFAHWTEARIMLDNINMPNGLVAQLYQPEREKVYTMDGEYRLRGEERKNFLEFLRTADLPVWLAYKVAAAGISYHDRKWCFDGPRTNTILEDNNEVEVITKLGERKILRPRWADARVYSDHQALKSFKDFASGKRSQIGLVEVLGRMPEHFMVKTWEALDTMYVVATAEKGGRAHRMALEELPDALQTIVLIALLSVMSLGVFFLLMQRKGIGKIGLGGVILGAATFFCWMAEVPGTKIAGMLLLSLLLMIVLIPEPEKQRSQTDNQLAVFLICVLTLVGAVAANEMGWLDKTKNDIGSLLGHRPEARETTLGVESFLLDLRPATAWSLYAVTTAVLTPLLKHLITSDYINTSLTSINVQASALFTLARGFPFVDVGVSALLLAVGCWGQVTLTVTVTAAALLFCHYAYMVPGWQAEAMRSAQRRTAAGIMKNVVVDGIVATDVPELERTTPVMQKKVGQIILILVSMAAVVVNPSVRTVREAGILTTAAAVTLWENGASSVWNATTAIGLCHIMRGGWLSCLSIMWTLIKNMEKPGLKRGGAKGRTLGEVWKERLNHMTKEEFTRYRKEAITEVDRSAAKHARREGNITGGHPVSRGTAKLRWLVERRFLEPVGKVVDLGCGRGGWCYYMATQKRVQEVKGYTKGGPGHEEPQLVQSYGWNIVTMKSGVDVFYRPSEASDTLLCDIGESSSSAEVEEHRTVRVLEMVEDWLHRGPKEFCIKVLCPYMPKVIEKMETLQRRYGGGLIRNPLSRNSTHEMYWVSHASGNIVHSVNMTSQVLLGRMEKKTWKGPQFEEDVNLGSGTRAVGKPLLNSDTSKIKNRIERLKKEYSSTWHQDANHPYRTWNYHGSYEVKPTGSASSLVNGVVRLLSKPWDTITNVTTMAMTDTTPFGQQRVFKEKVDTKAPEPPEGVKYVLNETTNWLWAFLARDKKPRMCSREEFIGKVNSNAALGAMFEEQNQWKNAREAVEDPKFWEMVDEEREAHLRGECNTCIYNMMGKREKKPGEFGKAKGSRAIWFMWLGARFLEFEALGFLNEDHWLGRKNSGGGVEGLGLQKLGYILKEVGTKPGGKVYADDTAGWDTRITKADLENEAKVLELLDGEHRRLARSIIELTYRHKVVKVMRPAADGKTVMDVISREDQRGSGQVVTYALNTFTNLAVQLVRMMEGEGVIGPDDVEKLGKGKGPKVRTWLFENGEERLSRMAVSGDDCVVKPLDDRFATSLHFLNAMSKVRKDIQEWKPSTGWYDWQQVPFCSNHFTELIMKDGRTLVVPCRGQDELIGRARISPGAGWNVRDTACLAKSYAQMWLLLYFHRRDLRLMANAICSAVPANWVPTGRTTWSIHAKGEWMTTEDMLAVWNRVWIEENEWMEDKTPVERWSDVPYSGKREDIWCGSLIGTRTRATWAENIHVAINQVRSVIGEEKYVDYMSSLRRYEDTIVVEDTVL
- test-summary: Inhibition of WNV NS2B-NS3 protease expressed in Escherichia coli BL21 lambda (DE3) cells using Abz-Gly-Leu-Lys-Arg-Gly-Gly-3-(NO2)Tyr as substrate at 50 uM preincubated for 15 mins followed by substrate addition measured for 15 mins by FRET assay relative to control
For each record, write down the corresponding inhibition.

For orientation, consider the following solved cases.
| molecule | measurement-target | inhibition |
| --- | --- | --- |
| C#CCCN1C(=O)S/C(=C\c2ccc(C(=O)O)cc2)C1=O | Genome polyprotein (West Nile virus) (UniProt P06935) | 20.8% |
| N=C(N)NCCC[C@H](NC(=O)c1ccc(/C=C2\SC(=O)N(C3CCC3)C2=O)cc1)C(=O)N[C@@H](CCCCN)C(=O)N[C@H](C(N)=O)c1ccccc1 | Genome polyprotein (West Nile virus) (UniProt P06935) | 95.3% |
| CC(C)(C)CN1C(=O)S/C(=C\c2ccc(C(=O)N[C@@H](CCCNC(=N)N)C(=O)N[C@@H](CCCCN)C(=O)N[C@H](C(N)=O)c3ccccc3)cc2)C1=O | Genome polyprotein (West Nile virus) (UniProt P06935) | 93.5% |
| CCC(CC)CN1C(=O)S/C(=C\c2ccc(C(=O)N[C@@H](CCCNC(=N)N)C(=O)N[C@@H](CCCCN)C(=O)N[C@H](C(N)=O)c3ccccc3)cc2)C1=O | Genome polyprotein (West Nile virus) (UniProt P06935) | 99.2% |
| CCC(C)N1C(=O)S/C(=C\c2ccc(C(=O)N[C@@H](CCCNC(=N)N)C(=O)N[C@@H](CCCCN)C(=O)N[C@H](C(N)=O)c3ccccc3)cc2)C1=O (some centres not stated) | Genome polyprotein (West Nile virus) (UniProt P06935) | 92.8% |
| O=C(O)c1ccc(/C=C2\SC(=O)N(CC3CCCCC3)C2=O)cc1 | Genome polyprotein (West Nile virus) (UniProt P06935) | 35% |

Give inhibition for all molecules that follow.
1. C#CCCCN1C(=O)S/C(=C\c2ccc(C(=O)N[C@@H](CCCNC(=N)N)C(=O)N[C@@H](CCCCN)C(=O)N[C@H](C(N)=O)c3ccccc3)cc2)C1=O
2. CC(C)CCN1C(=O)S/C(=C\c2ccc(C(=O)N[C@@H](CCCNC(=N)N)C(=O)N[C@@H](CCCCN)C(=O)N[C@H](C(N)=O)c3ccccc3)cc2)C1=O
3. C#CCCN1C(=O)S/C(=C\c2ccc(C(=O)N[C@@H](CCCNC(=N)N)C(=O)N[C@@H](CCCCN)C(=O)N[C@H](C(N)=O)c3ccccc3)cc2)C1=O
4. CC(C)N1C(=O)S/C(=C\c2ccc(C(=O)O)cc2)C1=O
5. N=C(N)NCCC[C@H](NC(=O)c1ccc(/C=C2\SC(=O)N(CC34CC5CC(CC(C5)C3)C4)C2=O)cc1)C(=O)N[C@@H](CCCCN)C(=O)N[C@H](C(N)=O)c1ccccc1

Response:
["105%", "95.4%", "97.8%", "34.8%", "107%"]
